# key: entry, value: combination Emax
- Test system: BPH-1 (Non-Cancerous)
- run-description: combination Emax (second highest fraction inhibited in the dose matrix, 72 h); higher = more inhibition; extreme values may be limits of the assay
Answer field: number only, no words.

Consider the reported combination Emax for these molecules:
INSERT INTO assay_data (molecule, reported_measurement) VALUES
  ('C[C@@H](c1ccc2nccn2c1)n1nnc2ncc(-c3cnn(C)c3)nc21 [Savolitinib] + Cc1c2c(nn1C)CSCc1cc(n(C)n1)CSc1cc(c3ccccc3c1)OCCCc1c(C(=O)O)n(C)c3c-2c(Cl)ccc13 [AZD5991] (first compound max 1 µM, 7x7, partner max 1 µM)', 0.199),
  ('COc1nnc2ccc(N3CCC(c4ccc(OCCN5CCN(C)C(=O)[C@H]5C)cc4)CC3)nn12 [AZD5153] + CC1(C)CCC(CN2CCN(c3ccc(C(=O)NS(=O)(=O)c4ccc(NCC5CCOCC5)c([N+](=O)[O-])c4)c(Oc4cnc5[nH]ccc5c4)c3)CC2)=C(c2ccc(Cl)cc2)C1 [Venetoclax] (first compound max 1 µM, 7x7, partner max 1 µM)', 0.745);

Could you now consider this next molecule?
Query :: Given the molecule Cc1c2c(nn1C)CSCc1cc(n(C)n1)CSc1cc(c3ccccc3c1)OCCCc1c(C(=O)O)n(C)c3c-2c(Cl)ccc13 [AZD5991] + C1CN(CCC1(C(=O)N[C@@H](CCO)C2=CC=C(C=C2)Cl)N)C3=NC=NC4=C3C=CN4 [Capivasertib] (first compound max 1 µM, 7x7, partner max 3 µM) , what is its reported combination Emax?
Result :: 0.469

###

- Tested on: KYAE-1 (Esophageal Adenocarcinoma);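 note: after 72 h of two-drug dosing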
- run-description: Bliss excess, mean over the matrix (fraction); higher = more synergy
# key: entry, value: Bliss excess
Answer field: number only, no words.

INSERT INTO assay_data (compound, reported_measurement) VALUES
  ('CC1(C)CCC(CN2CCN(c3ccc(C(=O)NS(=O)(=O)c4ccc(NCC5CCOCC5)c([N+](=O)[O-])c4)c(Oc4cnc5[nH]ccc5c4)c3)CC2)=C(c2ccc(Cl)cc2)C1 [Venetoclax] + CS(=O)(=O)CCNCc1ccc(-c2ccc3ncnc(Nc4ccc(OCc5cccc(F)c5)c(Cl)c4)c3c2)o1 [Lapatinib] (first compound max 1 µM, 7x7, partner max 10 µM)', 0.0085),
  ('CCc1c2c(nc3ccc(O)cc13)-c1cc3c(c(=O)n1C2)COC(=O)[C@]3(O)CC [SN-38] + CN(C)CCCOc1ccc(-c2ccc3ncc4c(c3c2)n(C2CCOCC2)c(=O)n4C)cn1 [AZD0156] (first compound max 0.3 µM, 7x7, partner max 1 µM)', -0.0188),
  ('Cc1nc(-c2cn3c(n2)-c2ccc(-c4cnn(C(C)(C)C(N)=O)c4)cc2OCC3)n(C(C)C)n1 [Taselisib] + O=C(Nc1ccc2[nH]nc(-c3ccncc3)c2c1)[C@@H]1CCN(CC(=O)N2CCN(c3ccc(-c4ncccn4)cc3)CC2)C1 [SCH772984] (first compound max 10 µM, 7x7, partner max 5 µM)', -0.0018),
  ('CN(C)CCCOc1ccc(-c2ccc3ncc4c(c3c2)n(C2CCOCC2)c(=O)n4C)cn1 [AZD0156] + C=CCn1c(=O)c2cnc(Nc3ccc(N4CCN(C)CC4)cc3)nc2n1-c1cccc(C(C)(C)O)n1 [AZD1775] (first compound max 1 µM, partner max 1 µM)', -0.0143),
  ('Cc1nc(Nc2ncc(C(=O)Nc3c(C)cccc3Cl)s2)cc(N2CCN(CCO)CC2)n1 [Dasatinib] + CC(=O)Nc1cccc(-n2c(=O)n(C3CC3)c(=O)c3c(Nc4ccc(I)cc4F)n(C)c(=O)c(C)c32)c1 [Trametinib] (first compound max 2 µM, 7x7, partner max 1 µM)', -0.0114);

Query :: Given the compound O=C(c1cc(Cc2n[nH]c(=O)c3ccccc23)ccc1F)N1CCN(C(=O)C2CC2)CC1 [Olaparib] + CC1(C)CCC(CN2CCN(c3ccc(C(=O)NS(=O)(=O)c4ccc(NCC5CCOCC5)c([N+](=O)[O-])c4)c(Oc4cnc5[nH]ccc5c4)c3)CC2)=C(c2ccc(Cl)cc2)C1 [Venetoclax] (first compound max 10 µM, 7x7, partner max 1 µM) , what is its reported Bliss excess?
Result :: -0.0116

Query :: Given the compound C[C@@H]1COCCN1c1cc(C2([S@](C)(=N)=O)CC2)nc(-c2ccnc3[nH]ccc23)n1 [AZD6738] + O=C(c1cc(Cc2n[nH]c(=O)c3ccccc23)ccc1F)N1CCN(C(=O)C2CC2)CC1 [Olaparib] (first compound max 10 µM, 7x7, partner max 10 µM) , what is its reported Bliss excess?
Result :: -0.0082

Query :: Given the compound COc1cccc(OCCCN)c1-c1cc(Nc2cnc(C#N)cn2)n[nH]1 [Prexasertib] + C=CCn1c(=O)c2cnc(Nc3ccc(N4CCN(C)CC4)cc3)nc2n1-c1cccc(C(C)(C)O)n1 [AZD1775] (first compound max 1 µM, partner max 1 µM) , what is its reported Bliss excess?
Result :: 0.103

Query :: Given the compound CN(CCO)CC[C@H](CSc1ccccc1)Nc1ccc(S(=O)(=O)NC(=O)c2ccc(N3CCC([C@@H](O)c4ccccc4-c4ccc(Cl)cc4)CC3)cc2)cc1S(=O)(=O)C(F)(F)F [AZD4320] + CC(=O)O[C@H]1C(=O)[C@@]2(C)[C@H]([C@H](OC(=O)c3ccccc3)[C@]3(O)C[C@H](OC(=O)[C@H](O)[C@@H](NC(=O)c4ccccc4)c4ccccc4)C(C)=C1C3(C)C)[C@]1(OC(C)=O)CO[C@@H]1C[C@@H]2O [Paclitaxel] (first compound max 1 µM, 7x7, partner max 3 µM) , what is its reported Bliss excess?
Result :: 0.0811
